Experiment: Turbidity, derived count rate of scattered light
Format: physicochemical
Details: key not given
Method: 4 µL of 1 mg/mL peptide fibrils solution is added to a 20 µL, 50 µM ThT–solution in PBS. The mixture is incubated for 15 min at RT to allow binding of ThT dye with β–sheet rich structures. […] Fluorescence spectra were recorded on an Infinite® M1000 PRO microplate reader (Tecan) at λem = 488 nm upon excitation at λex = 440 nm with 10 nm bandwidths and multiple reads per well (3×3). […] Furthermore, fluorescence microscopy was conducted by staining 1 µL preformed fibrils (1 mg/mL) with 9 µL ThT (50 µM). […]
value type: Zeta Count Rate Category
I'd appreciate a reply containing only the number, no unit.

Below, each entry is followed by its recorded Zeta Count Rate Category result.
[[record]]
substance = "EIEIQINM [TM95 / (TM75)]"
value_type = "Zeta Count Rate Category"
recorded_value = 1

[[record]]
substance = "KIKQIINM [JGA2]"
value_type = "Zeta Count Rate Category"
recorded_value = 1


*Q* Could you share which Zeta Count Rate Category value was measured for CEIEIQINMWQ [TM143] ?
*A* 1

*Q* Could you share which Zeta Count Rate Category value was measured for KVKVQVVV [TG8] ?
*A* 1

*Q* Could you share which Zeta Count Rate Category value was measured for KIKQIIN [JGA3] ?
*A* 0

*Q* Could you share which Zeta Count Rate Category value was measured for RGDKIKIQINMC [psis29] ?
*A* 1

*Q* Could you share which Zeta Count Rate Category value was measured for CKIKQII [MG4a] ?
*A* 0

*Q* Could you share which Zeta Count Rate Category value was measured for KIKQII [msis21] ?
*A* 1

*Q* Could you share which Zeta Count Rate Category value was measured for CEIEIQINM [TM144] ?
*A* 0

---

Experiment: Aggregate analysis by widefield fluorescence microscopy
Assay type: physicochemical
Conditions: Fig S8 panels B, D; median aggregate area, 3 fields of 1330 µm x 1330 µm
Method: 4 µL of 1 mg/mL peptide fibrils solution is added to a 20 µL, 50 µM ThT–solution in PBS. The mixture is incubated for 15 min at RT to allow binding of ThT dye with β–sheet rich structures. […] Fluorescence spectra were recorded on an Infinite® M1000 PRO microplate reader (Tecan) at λem = 488 nm upon excitation at λex = 440 nm with 10 nm bandwidths and multiple reads per well (3×3). […] Furthermore, fluorescence microscopy was conducted by staining 1 µL preformed fibrils (1 mg/mL) with 9 µL ThT (50 µM). […]
value type: Median Area in 3 * (1330 µm *1330 µm)

Below, each entry is followed by its recorded Median Area in 3 * (1330 µm *1330 µm) result.
[[record]]
substance = "CKFKQFFNM [CK14]"
recorded_value = 15.21

[[record]]
substance = "CKWKWQW [KB4]"
recorded_value = 29.43

[[record]]
substance = "QCKIKQIINMWQ [reference compound]"
recorded_value = 27.89


*Q* Could you share which Median Area in 3 * (1330 µm *1330 µm) value was measured for HHHHKIKIKIKIWWWW [TM4] ?
*A* 24.51

*Q* Could you share which Median Area in 3 * (1330 µm *1330 µm) value was measured for CQFQFQF [QBL4] ?
*A* 15.07

*Q* Could you share which Median Area in 3 * (1330 µm *1330 µm) value was measured for KWKWQW [KB3] ?
*A* 41.405

*Q* Could you share which Median Area in 3 * (1330 µm *1330 µm) value was measured for KFKFQFNMWQ [JG4] ?
*A* 25.773

*Q* Could you share which Median Area in 3 * (1330 µm *1330 µm) value was measured for CKIKIQI [MG3b] ?
*A* 16.48

*Q* Could you share which Median Area in 3 * (1330 µm *1330 µm) value was measured for CKFKFQFW [TM72] ?
*A* 16.689

*Q* Could you share which Median Area in 3 * (1330 µm *1330 µm) value was measured for QCKIKIQINMWQ [EF-C opt] ?
*A* 11.97

*Q* Could you share which Median Area in 3 * (1330 µm *1330 µm) value was measured for KIKQIINMWQ [JG2] ?
*A* 199.4905

---

assay: Turbidity, derived count rate of scattered light; assay type: physicochemical; conditions: derived count rate of scattered light (turbidity)
Consider the following substances and their measured Count Rate readings.
I'd appreciate a reply containing only the number, no unit.

Below, each entry is followed by its recorded Count Rate result.
[[record]]
substance = "KIKIKIQI"
recorded_value = 999.1

[[record]]
substance = "CSISIQINM"
recorded_value = 3291

[[record]]
substance = "KIKIQIW"
recorded_value = 144.9

[[record]]
substance = "KWKWQW"
recorded_value = 1545


*Q* Could you share which Count Rate value was measured for HHHHEIEIEIEI ?
*A* 103.3

*Q* Could you share which Count Rate value was measured for CKAKAQANM ?
*A* 207.3

---

Consider the following substances and their measured Absolute Infectivity / RLU /s (Feb2021) readings.
tested on: HIV-1 infection of TZM-bl cells; experiment: HIV-1 infectivity enhancement assay, β-galactosidase luminescence; type: cell-based; conditions: Feb2021; figures match the 1.3 µM column
The answer is to be given in RLU /s; state only the numeric part.

Below, each entry is followed by its recorded Absolute Infectivity / RLU /s (Feb2021) result.
[[record]]
substance = "KVKVQVV [TG2]"
value_type = "Absolute Infectivity / RLU /s (Feb2021)"
units_text = "RLU /s"
recorded_value = 213.3

[[record]]
substance = "HHHHKAKAKAKAYYYY [TM10]"
value_type = "Absolute Infectivity / RLU /s (Feb2021)"
units_text = "RLU /s"
recorded_value = 203.3

[[record]]
substance = "KFKQFFNMWQ [JG5]"
value_type = "Absolute Infectivity / RLU /s (Feb2021)"
units_text = "RLU /s"
recorded_value = 1000


*Q* Could you share which Absolute Infectivity / RLU /s (Feb2021) value was measured for QCKFKQFF [CK12] ?
*A* 170

*Q* Could you share which Absolute Infectivity / RLU /s (Feb2021) value was measured for RGDCKFKFQF [TM64/ CN15] ?
*A* 4637

*Q* Could you share which Absolute Infectivity / RLU /s (Feb2021) value was measured for KLKLQLL [TG4 / (KM2)] ?
*A* 163.3

*Q* Could you share which Absolute Infectivity / RLU /s (Feb2021) value was measured for KAKQAANMWQ [JG6] ?
*A* 343.3

*Q* Could you share which Absolute Infectivity / RLU /s (Feb2021) value was measured for CKIKQII [MG4a] ?
*A* 796.7

*Q* Could you share which Absolute Infectivity / RLU /s (Feb2021) value was measured for KIKQII [msis21] ?
*A* 100

---

experiment: Turbidity, derived count rate of scattered light; type: physicochemical; details: Log10 of derived count rate of scattered light (turbidity)
Consider the following substances and their measured Log10 Count Rate readings.

Below, each entry is followed by its recorded Log10 Count Rate result.
[[record]]
substance = "CKIKQIIRGD"
recorded_value = 3.544

[[record]]
substance = "KFKFQFN"
recorded_value = 1.705

[[record]]
substance = "CKIKQIINMWQ"
recorded_value = 3.92

[[record]]
substance = "CEFEFQF"
recorded_value = 2.565

[[record]]
substance = "CKFKFQFNMW"
recorded_value = 3.613


*Q* Could you share which Log10 Count Rate value was measured for KIKIKIKIWW ?
*A* 3.975

*Q* Could you share which Log10 Count Rate value was measured for HHHHEIEIEIEI ?
*A* 2.014

*Q* Could you share which Log10 Count Rate value was measured for KIRGKFEKED ?
*A* 2.331

*Q* Could you share which Log10 Count Rate value was measured for KFKQFFINMWQ ?
*A* 3.954

*Q* Could you share which Log10 Count Rate value was measured for KFKFQFNM ?
*A* 2.12

---

test: Conversion rate (CR) assay with fluorescamine; assay type: physicochemical; conditions: Fig. S7 panel B; conversion rate, fluorescamine assay
Consider the following substances and their measured CR / % readings.
The answer is to be given in %; state only the numeric part.

Below, each entry is followed by its recorded CR / % result.
[[record]]
substance = "QCKFKQFFNMWQ"
units_text = "%"
recorded_value = 98.7

[[record]]
substance = "HHHHKIKIKIKIWWWW"
units_text = "%"
recorded_value = 96

[[record]]
substance = "RGDKIKIQINM"
units_text = "%"
recorded_value = 60.9

[[record]]
substance = "RGDKIKIQINMWQ"
units_text = "%"
recorded_value = 66

[[record]]
substance = "KIKIQINMWQ"
units_text = "%"
recorded_value = 94.3


Proceed to the following item.
*Q* Could you share which CR / % value was measured for KFKFQF ?
*A* 67.4
